Attribute: SPOT intensity
- studyTarget: T1, Pin3, Q06449
- T1 sequence (Q06449 53-122, looked up): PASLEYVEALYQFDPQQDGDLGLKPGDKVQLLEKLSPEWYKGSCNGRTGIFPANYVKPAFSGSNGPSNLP
- protocolDescription: SPOT array
- conditionSet: median of control spots 2171

>  <binder>
RKQRSIPLSPIVPES

>  <SPOT intensity>
7

$$$$
>  <binder>
ITHRLRISIPGITGR

>  <SPOT intensity>
69

$$$$
>  <binder>
ALKQKKIPPPFKPHL

>  <SPOT intensity>
0

$$$$
>  <binder>
KRNRLKILLPFLEQS

>  <SPOT intensity>
17

$$$$
>  <binder>
QQEQNTPPLPPKPKS

>  <SPOT intensity>
0

$$$$
>  <binder>
HAPPLPPTAPPPPSL

>  <SPOT intensity>
0

$$$$
>  <binder>
QRIRKIPGIPLMSVG

>  <SPOT intensity>
71

$$$$
